// reported protein stability index per item
B1: SLC19A2 (parent)
chain: IYPVWTYSYLVLLFPVFLATDYLR

Variants of: B1
TEST SUMMARY: protein stability index of a GFP-peptide fusion (GPS, HEK-293T) (PSI 1-6); higher = more stable;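 also: lentivirally expressed fusions sorted by FACS into six bins by GFP to DsRed ratio, PSI derived from sequencing read proportions per bin multiplied by bin number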
TEST CONTEXT: c terminus: a fixed tail appended
Kindly provide the number alone.

MUTANT ID | protein stability index
Y9C | 4.17
R24I | 3.43
P15A | 3.53
Y7F | 2.84
F17E | 3.22

Fill blank: measured protein stability index of the variant L12W is ____.
3.3

Okay, and V4F ?
3.35

Okay, and R24E ?
1.91

Okay, and W5F ?
3.25

Provenance of the data: the supplement of paper PMC10567573
